# subject_of_test: Heat shock protein HSP 90-alpha (Homo sapiens)
# test_protocol: Binding affinity to recombinant Hsp90 alpha (unknown origin) by surface plasmon resonance
# recorded_conditions: read-out: Kd
// classify(record): look up Kd in ranges low class: < 30 nM; middle class: ≥ 30 nM and < 100 nM; high class: ≥ 100 nM

Field: example entries. Status: answers known.
{"compound": "O=C(/C=C/c1ccc(O)cc1)O[C@H]1[C@@H]2C=CO[C@@H](O[C@@H]3O[C@H](CO)[C@@H](O)[C@H](O)[C@H]3O)[C@@H]2[C@@]2(CO)O[C@@H]12 [SPECIOSIDE]", "subject_of_test": "Heat shock protein HSP 90-alpha (Homo sapiens)", "label": "low class"}
{"compound": "O=C(O[C@H]1[C@@H]2C=CO[C@@H](O[C@@H]3O[C@H](CO)[C@@H](O)[C@H](O)[C@H]3O)[C@@H]2[C@@]2(CO)O[C@@H]12)c1ccc(O)cc1 [CATALPOSIDE]", "subject_of_test": "Heat shock protein HSP 90-alpha (Homo sapiens)", "label": "low class"}
{"compound": "O=C(OC[C@H]1O[C@@H](O[C@@H]2OC=C[C@@H]3[C@H]2[C@](O)(CO)C[C@H]3OC(=O)c2ccc(O)cc2)[C@H](O)[C@@H](O)[C@@H]1O)c1ccc(O)cc1", "subject_of_test": "Heat shock protein HSP 90-alpha (Homo sapiens)", "label": "high class"}
{"compound": "O=C(O[C@H]1[C@@H]2CCO[C@@H](O[C@@H]3O[C@H](CO)[C@@H](O)[C@H](O)[C@H]3O)[C@@H]2[C@@]2(CO)O[C@@H]12)c1ccc(O)cc1", "subject_of_test": "Heat shock protein HSP 90-alpha (Homo sapiens)", "label": "low class"}
{"compound": "O=C(/C=C\\c1ccc(O)cc1)O[C@@H]1C[C@@](O)(CO)[C@H]2[C@H](O[C@@H]3O[C@H](CO)[C@@H](O)[C@H](O)[C@H]3O)OC=C[C@H]21", "subject_of_test": "Heat shock protein HSP 90-alpha (Homo sapiens)", "label": "middle class"}
{"compound": "O=C(O[C@H]1[C@@H]2C=CO[C@@H](O[C@@H]3O[C@H](CO)[C@@H](O)[C@H](O)[C@H]3O)[C@@H]2[C@@]2(CO)O[C@@H]12)[C@H]1[C@H](C(=O)O[C@H]2[C@@H]3C=CO[C@@H](O[C@@H]4O[C@H](CO)[C@@H](O)[C@H](O)[C@H]4O)[C@@H]3[C@@]3(CO)O[C@@H]23)[C@@H](c2ccc(O)cc2)[C@@H]1c1ccc(O)cc1 [ARGENTEOSIDE A]", "subject_of_test": "Heat shock protein HSP 90-alpha (Homo sapiens)", "label": "low class"}

Which class holds O=C(/C=C/c1ccc(O)c(O)c1)O[C@@H]1C2C=CO[C@H](O[C@@H]3O[C@H](CO)[C@@H](O)[C@H](O)[C@H]3O)C2[C@]2(CO)O[C@H]12 (stereo partly specified) [VERMINOSIDE] ?
high class

Which class holds O=C(O[C@@H]1C[C@@](O)(CO)[C@H]2[C@H](O[C@@H]3O[C@H](CO)[C@@H](O)[C@H](O)[C@H]3O)OC=C[C@H]21)c1ccc(O)cc1 ?
middle class

Which class holds O=C(O[C@@H]1C[C@@]2(O)CO[C@H]3O[C@H](O)C[C@@H]1[C@H]32)c1ccc(O)cc1 ?
high class

Which class holds O=C(O[C@H]1[C@@H]2C=CO[C@@H](O[C@@H]3O[C@H](CO)[C@@H](O)[C@H](O)[C@H]3O)[C@@H]2[C@@]2(CO)O[C@@H]12)[C@H]1[C@H](c2ccc(O)cc2)[C@H](C(=O)O[C@H]2[C@@H]3C=CO[C@@H](O[C@@H]4O[C@H](CO)[C@@H](O)[C@H](O)[C@H]4O)[C@@H]3[C@@]3(CO)O[C@@H]23)[C@H]1c1ccc(O)cc1 [ARGENTEOSIDE B] ?
middle class

Which class holds O[C@H]1[C@@H]2CCO[C@@H]3OC[C@@](O)([C@@H]32)[C@@H]1O ?
high class

* * *

# subject_of_test: Heat shock protein HSP 90-alpha (Homo sapiens)
# test_protocol: Binding affinity to recombinant Hsp90 alpha (unknown origin) by surface plasmon resonance

{"cpd_smiles": "COc1cc(/C=C/C(=O)O[C@H]2[C@@H]3C=CO[C@@H](O[C@@H]4O[C@H](CO)[C@@H](O)[C@H](O)[C@H]4O)[C@@H]3[C@@]3(CO)O[C@@H]23)ccc1O", "Kd": "Not Active"}
{"cpd_smiles": "O=C(O[C@@H]1C[C@@]2(O)CO[C@@H]3CC1C2[C@H](O[C@@H]1O[C@H](CO)[C@@H](O)[C@H](O)[C@H]1O)O3)c1ccc(O)cc1", "Kd": "Not Active"}
{"cpd_smiles": "COc1cc(/C=C/C(=O)O[C@@H]2C[C@@](O)(CO)[C@H]3[C@H](O[C@@H]4O[C@H](CO)[C@@H](O)[C@H](O)[C@H]4O)OC=C[C@H]32)ccc1O", "Kd": "Not Active"}
